- System: batrachotoxin (BTX) binding site of the sodium channel
- PROTOCOL_DESCRIPTION: Affinity to the batrachotoxin (BTX) binding site of the sodium channel
- REPORTED_CONDITIONS: rat cerebrocortex synaptosomes, [3H]-batrachotoxinin A20 α-benzoate 10 nM; test concentration not given
READOUT_LABEL: BTX Inhibition
Quick one: just the number, no unit, thanks!

Examples with answers:
State, in one line, measured BTX Inhibition of CCOC(=O)CN1C(=O)C(Cc2ccccc2)NC12CCN(S(=O)(=O)c1ccccc1C(F)(F)F)CC2 (centres unmarked)
51

Give BTX Inhibition for the following molecule: CCOC(=O)CN1C(=O)C(Cc2ccccc2)NC12CCN(S(=O)(=O)c1ccc(Cl)s1)CC2 (centres unmarked)
50

Entry COc1ccc(CNC(=S)N2CCC3(CC2)NC(CCSC)C(=O)N3C)cc1 (centres unmarked) needs its BTX Inhibition filled in; supply it.
51

Supply recorded BTX Inhibition for CCCCN1C(=O)C(CCSC)NC12CCN(C(=S)Nc1cc(Cl)ccc1Cl)CC2 (centres unmarked) here.
49

Shift focus to the following entry.
Tell me measured BTX Inhibition for CCCCN1C(=O)C(C(C)C)NC12CCN(C(=O)Nc1cccc(C(=O)OCC)c1)CC2 (centres unmarked) please.
51

Values were extracted from patent US7560468B2.
